Known EC50 of a selection of compounds
Biological target: human TLR2 (Homo sapiens (Human), UniProt O60603)
Sequence (O60603 21-784): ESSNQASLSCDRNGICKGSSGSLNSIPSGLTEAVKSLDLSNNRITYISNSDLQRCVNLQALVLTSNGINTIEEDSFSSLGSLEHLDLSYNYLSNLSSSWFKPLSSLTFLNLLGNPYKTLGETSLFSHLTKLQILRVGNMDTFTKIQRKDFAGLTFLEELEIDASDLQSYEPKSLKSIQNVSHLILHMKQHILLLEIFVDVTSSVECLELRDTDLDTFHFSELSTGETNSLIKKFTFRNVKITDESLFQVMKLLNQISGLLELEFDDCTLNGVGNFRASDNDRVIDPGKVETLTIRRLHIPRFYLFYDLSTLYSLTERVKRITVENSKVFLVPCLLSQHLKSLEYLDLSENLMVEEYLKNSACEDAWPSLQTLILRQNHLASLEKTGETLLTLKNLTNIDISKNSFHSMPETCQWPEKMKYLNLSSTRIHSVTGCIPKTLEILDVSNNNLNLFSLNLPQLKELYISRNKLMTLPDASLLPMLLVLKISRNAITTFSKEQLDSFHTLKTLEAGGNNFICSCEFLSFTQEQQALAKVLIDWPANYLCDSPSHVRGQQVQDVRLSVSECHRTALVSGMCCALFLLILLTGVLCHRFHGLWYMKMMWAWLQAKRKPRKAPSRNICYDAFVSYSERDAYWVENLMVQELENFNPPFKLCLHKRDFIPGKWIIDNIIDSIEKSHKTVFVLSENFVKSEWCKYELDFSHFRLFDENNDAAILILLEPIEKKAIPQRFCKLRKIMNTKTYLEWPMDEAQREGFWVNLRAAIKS
Experiment: human TLR2-specific NF-κB reporter gene assay (HEK-Blue cells)
Type: cell-based
Settings: human TLR2-specific reporter gene assay; ND = no activity detected at 10 μM; read-out: TLR2-Agonistic Activity (EC50 in nM)
Please reply with the bare figure in nM and do not write the unit itself.

- CCCCCCCCCCCCCCCC(=O)OCCSC[C@H](NC(C)=O)C(=O)N[C@@H](CO)C(=O)OC [Compound 11d]: 1.01

The recorded EC50 for CCCCCCCCCCCCCCCCn1cc(CCSC[C@H](NC(C)=O)C(=O)N[C@@H](CO)C(=O)OC)nn1 [Compound 38] is 641

* * *

Biological target: UniProt O60603
Test: human TLR2-specific NF-κB reporter gene assay (HEK-Blue cells)
Type: cell-based
Conditions: human TLR2-specific reporter gene assay; ND = no activity detected at 10 μM; read-out: TLR2-Agonistic Activity (EC50 in nM)
readout.name: EC50 (nM)
Please reply with the bare figure in nM and do not write the unit itself.

Answered examples (5):
- CCCCCCCCCCCCCCCC(=O)OCCSC[C@H](N)C(=O)N[C@@H](COC(C)=O)C(=O)OC [Compound 14a]: 2.97
- CCCCCCCCCCCCCCCC(=O)OCCSC[C@H](N)C(=O)N[C@@H](COC(=O)CCC)C(=O)OC [Compound 14b]: 5.47
- CCCCCCCCCCCCCCCC(=O)OCCSC[C@H](NC(C)=O)C(=O)N[C@@H](COS(=O)(=O)O)C(=O)OC [Compound 26]: 7.1
- CCCCCCCCCCCCCCCC(=O)NCCSC[C@H](NC(C)=O)C(=O)N[C@@H](CO)C(=O)OC [Compound 34]: 11.8
- CCCCCCCCCCCCCCCCOC(=O)NCCSC[C@H](NC(C)=O)C(=O)N[C@@H](CO)C(=O)NCc1ccc(Cn2c(CCCC)nc3c(N)nc4ccccc4c32)cc1 [Compound 54]: 221

Assay UniProt O60603, sample CCCCCCCCCCCCCCCC(=O)OCCSC[C@H](NC(=O)CCC)C(=O)N[C@@H](CO)C(=O)OC [Compound 11e] , EC50 read: 1.64

* * *

Molecular target: human TLR2 (Homo sapiens (Human))
Assay: human TLR2-specific NF-κB reporter gene assay (HEK-Blue cells)
Assay type: cell-based
Settings: human TLR2-specific reporter gene assay; ND = no activity detected at 10 μM; read-out: TLR2-Agonistic Activity (EC50 in nM)
readout.name: EC50 (nM)
Please reply with the bare figure in nM and do not write the unit itself.

The recorded EC50 for "CCCCCCCCCCC[C@@H](O)CC(=O)OCCSC[C@H](NC(C)=O)C(=O)N[C@@H](CO)C(=O)OC" is 1.13

The recorded EC50 for "CCCCCCCCCCCCCc1cn(CCSC[C@H](NC(C)=O)C(=O)N[C@@H](CO)C(=O)OC)nn1" is 260

The recorded EC50 for "CCCCCCCCCCCCCCCC(=O)OCCCSC[C@H](NC(C)=O)C(=O)N[C@@H](CO)C(=O)OC" is 5.52

The recorded EC50 for "CCCCCCCCCCCCCCCC(=O)O[C@H](CCCCCCCCCCC)CC(=O)OCCSC[C@H](NC(C)=O)C(=O)N[C@@H](CO)C(=O)OC" is 4.78

Cited source: patent US9676818B2
